- Test system: DMS-273
- method_notes: NCI tumour cell line growth inhibition, 48 h
Activity calls are given as the source filed them. No stated cut-off is given here; in the data, active = GI50 up to about 1.1 µM and inactive = higher.
property_measured: GI50

                                   compound  property_measured                  val
0  NC1=NC(c2ccccc2)CC(c2cc(Cl)cc(Br)c2O)=N1 (stereo not given)               GI50   7.55 µM (inactive)
1  Cc1ccc([N+](=O)[O-])cc1NC(=O)C(=O)Cc1nc2ccc(C(=O)c3ccccc3)cc2nc1O               GI50  > 100 µM (inactive)
2  CN1Cc2ccccc2C2(COc3ccccc3C2=O)C1 (stereo not given)               GI50  > 100 µM (inactive)
3          NC(=O)c1ncn(Cc2ccccc2)c1CNC(N)=S               GI50  > 100 µM (inactive)
4   O=C(CCc1nnc(S)[nH]1)Nc1cc(Cl)c(Cl)cc1Cl               GI50  > 100 µM (inactive)
5  CC1=CC(=O)N(c2c(C)cccc2Cl)C(C)N1 (stereo not given)               GI50  > 100 µM (inactive)
6     O=Cc1cc2c(cc1-c1cc3c(cc1C=O)OCO3)OCO2               GI50   64.3 µM (inactive)
7  CCOP(=O)(OCC)C(C(=O)OC)C(=O)C(=O)Nc1cccc([N+](=O)[O-])c1 (stereo not given)               GI50  > 100 µM (inactive)
8  Cn1cc2ccccc2c1-c1nc(F)nc(Nc2ccc(N)cc2)n1               GI50   10.2 µM (inactive)
9                    NC(=O)NO [HYDROXYUREA]               GI50    137 µM (inactive)

----------
- Tested on: SF-295
- method_notes: NCI tumour cell line growth inhibition, 48 h
The source made the active and inactive calls. Rule as the data show it: active = GI50 up to about 1.1 µM and inactive = higher.
Classes used: active, inactive

compound	target	discrete_label
C=CCOC(=O)c1c(C)[n+]([O-])c2cc(Cl)c(Cl)cc2[n+]1[O-]	SF-295	inactive
O=C(N[C@@H](Cc1ccccc1)B(O)O)[C@H](Cc1cccc2ccccc12)NC(=O)N1CCOCC1	SF-295	active
Nc1nc(Cl)cc(NCCO)n1	SF-295	inactive
Cc1csc2nc(-c3cccc([N+](=O)[O-])c3)c(/C=N/N=C(N)N)n12	SF-295	inactive
CCCCCCCCCCCCC/C=C/[C@@H](O)[C@H](COC1OC(CO)C(OC2OC(CO)C(O)C(OC3(C(=O)O)CC(O)C(NC(C)=O)C(C(O)C(O)CO)O3)C2O)C(O)C1O)N=[N+]=[N-] (some centres undefined)	SF-295	inactive
O=C(NNC(=S)Nc1ccc(Cl)cc1)c1cc(-c2ccccc2)nc2ccccc12	SF-295	inactive
CCOC1Oc2ccccc2-c2nc(SC)ncc21 (centres undefined)	SF-295	inactive
CCN(CC(O)COc1ccc2c(c1)[n+]([O-])nc(N)[n+]2[O-])C(C)=O (centres undefined)	SF-295	inactive
CN1CCC(CNC(=O)CCCCCCCCC(=O)NCC2(c3ccccc3)CCN(C)CC2)(c2ccccc2)CC1	SF-295	inactive

----------
- System: U-251
- method_notes: NCI tumour cell line growth inhibition, 48 h
Activity calls are given as the source filed them. Rule as the data show it: active = GI50 up to about 1.1 µM and inactive = higher.
Classes used: active, inactive

compound	target	discrete_label
C=CCN1C(=O)NC(=O)/C(=C/c2c3ccccc3cc3ccccc23)C1=O	U-251	inactive
O=C1c2ccccc2-c2nnc3c(c21)Cc1ccccc1C3	U-251	inactive
Cn1c(=O)c2/c(n(C)c1=O)=N\C=c1\c(=O)n(C)c(=O)n(C)\c1=N\C=2	U-251	inactive
CC1=C(Cl)C=CP(=O)(Oc2ccccc2)C1 (stereo not given)	U-251	inactive
C[C@]12CCc3nonc3C1CC[C@@H]1C2CC[C@]2(C)C(=O)CCC12 (stereo not given in full)	U-251	inactive
Cc1ccc(C2=CC(=O)/C(=C\C(=O)c3ccc(Cl)cc3)O2)cc1	U-251	inactive
Cc1cc(C)c2c(=O)n(CC(O)CN3CCN(c4ncccn4)CC3)sc2n1 (stereo not given)	U-251	inactive
CC1(C)SC2C(NC(=O)Cc3ccccc3)C(=O)N2C1C(=O)O (stereo not given)	U-251	inactive
O=C1CCCC/C1=C\c1ccc(Cl)c(Cl)c1	U-251	inactive
COC1/C=C/C(C)C(C(C)C(OC)C(C)CCC(=O)C(C)C(CCC(=O)O)OC)OC(=O)/C=C/C=C(\C)CC(OC)CC2=CC(=O)O[C@@H](C(C)C(OC)CC(OC)/C=C/C(C)C(OC)C1)[C@H]2O (stereo not given in full)	U-251	active

----------
- System: HCT-15
GI50 values, listed per item
property_measured: GI50 (µM)

                                   compound  qualifier_sign   val
0      O=C1CC(O)c2cscc21 (stereo not given)               >   100
1             COc1cccc(NC(=O)C(C)(C)C)c1C=O               =  35.4
2  COC1O[C@H]2[C@H]3[C@@H]1[C@@H](OS(=O)(=O)c1ccc(C)cc1)C(=O)N3C[C@H]2O (stereo not given in full)               >   100
3  Cc1c(Cl)ccc2c1NC(=O)C2(O)CC(=O)c1ccc2ccccc2c1 (stereo not given)               =  41.1
4  CCOP(=O)(OCC)C(C(=O)OC)C(=O)C(=O)Nc1cccc([N+](=O)[O-])c1 (stereo not given)               >   100

----------
- Tested on: OVCAR-8
- method_notes: NCI tumour cell line growth inhibition, 48 h
The source made the active and inactive calls. Rule as the data show it: active = GI50 up to about 1.1 µM and inactive = higher.
Classes used: label 1 (active), label 0 (inactive)

>>> print(df.to_string())
                                    compound  discrete_label
 0  O=C1CC2[C@@H](N3CCCC3)CCC(N1Cc1ccccc1)C2(O)O (stereo partly specified)         label 0
 1  CCC12CC(c3ccccc3)C(C(=O)N1)C(=O)N2 (stereo unspecified)         label 0
 2  c1ccc2c(c1)N[C@@H]1c3[nH]c4ccccc4c3CC[C@H]21         label 0
 3  Cc1cc(C)c2c(=O)n(CC(O)CN3CCN(c4ncccn4)CC3)sc2n1 (stereo unspecified)         label 0
 4           Cc1cc(O)c2c(c1)C(=O)C=C(Br)C2=O         label 0
 5    O=c1c2cn[nH]c2nc2scc(-c3ccc(Cl)cc3)n12         label 0
 6  NC(=S)N/N=C1\CCCCC1C(O)(C(F)(F)Cl)C(F)(F)Cl (stereo unspecified)         label 0
 7          Cc1ccnc2nc(-c3ccc(F)cc3)cc(O)c12         label 0
 8         COc1ccc(Sc2ccccc2[N+](=O)[O-])cc1         label 0
 9  COc1ccc2[nH]c3c(C)c4c(c(C)c3c2c1)CN(C)C=C4         label 1
10  C[C@]12CC[C@H]3[C@@H](CCC4=C/C(=N/OCCN5CCCCC5)CC[C@@]43C)[C@@H]1CC[C@@H]2O         label 0

----------
- Tested on: SNB-78
- method_notes: NCI tumour cell line growth inhibition, 48 h
Structures can show the parent of a compound that is named as a salt. Activity calls are given as the source filed them. No stated cut-off is given here; in the data, active = GI50 up to about 1.1 µM and inactive = higher.
Classes used: active, inactive

>>> print(df.to_string())
                                   molecule  target  discrete_label
0              [N-]=[N+]=N/C1=C/CCCCC(=O)C1  SNB-78        inactive
1  CC(C)(C)C(C#N)(C#N)c1ccc(C(C#N)(C#N)C(C)(C)C)nn1  SNB-78        inactive
2  N=C(NC(=N)Nc1ccc(S(=O)(=O)Nc2cnc3ccccc3n2)cc1)Nc1ccc(Br)cc1  SNB-78        inactive
3  CC1CCC2(OC1)OC1CC3C4CCC5CC(O)CCC5(C)C4CC(=O)OC3(C)C1C2C (centres undefined)  SNB-78        inactive
4  CC1OC(OC2C[C@](O)(C(=O)CF)Cc3c(O)c4c(c(O)c32)C(=O)c2ccccc2C4=O)CC(N)C1O (some centres undefined)  SNB-78          active
5     Cc1cccc(C)c1NC(=O)/C(Cl)=C(/Cl)C(=O)O  SNB-78        inactive
6       CN1CCCS/C1=C1/SC(=S)N(c2ccccc2)C1=O  SNB-78        inactive
7  CC[C@@]1(O)C(=O)OCc2c1cc1n(c2=O)Cc2cc3c(CN(C)C)c(O)ccc3nc2-1 [TOPOTECAN HYDROCHLORIDE]  SNB-78        inactive
8  CCOP(=O)(OCC)C(C(=O)OC)C(=O)C(=O)Nc1cccc([N+](=O)[O-])c1 (centres undefined)  SNB-78        inactive
